All values here come from the supplement of paper PMC11219838.

Test system: Meloidogyne hapla J2
Assay: proportion of mobile M. hapla J2 relative to DMSO control (fraction of DMSO control); higher = more viable, less nematicidal, active = 0.7 or less
Conditions: 60 µM; 5 days; temperature: 20 °C
Response enum: active, inactive

These solved cases illustrate the format of a correct answer.
| compound | discreteLabel |
| --- | --- |
| COc1nc(-c2ccc(Cl)cc2)ccc1-c1noc(C)n1 | inactive |
| Brc1ccc(-c2noc(-c3cccs3)n2)o1 | active |
| COc1cccc(-c2noc(COc3cc(C)cc(C)c3)n2)c1 | inactive |
| Clc1ccc(-c2noc(-c3cccnc3)n2)cc1 | inactive |
| CC1CC(C)CN(C(=O)CSc2nnc(-c3ccccc3)o2)C1 (stereo unspecified) | inactive |

Now consider a different compound.
*Q* Test call for this compound, please: `O=C(CSc1nnc(-c2ccco2)o1)NC1CCCCC1`
*A* inactive
